tested on: Streptococcus sp. 'group B'; test: Antimicrobial activity against group B Streptococcus sp. 'group B' isolate 7368-04 by broth dilution method; assay type: functional
// values below are reported MIC
All answers are understood in µg/mL, so give the number only.

Record excerpt, results attached:
{"columns": ["cpdSmiles", "unitAnnotation", "MIC"],
 "data": [
  ["CO[C@@]1(NC(=O)Cc2cccs2)C(=O)N2C(C(=O)O)=C(COC(N)=O)CS[C@@H]21", "µg/mL", 4],
  ["CO/N=C(\\C(=O)N[C@@H]1C(=O)N2C(C(=O)O)=C(COC(N)=O)CS[C@H]12)c1ccco1", "µg/mL", 0.06],
  ["CC1(C)S[C@@H]2[C@H](NC(=O)[C@H](N)c3ccccc3)C(=O)N2[C@H]1C(=O)O", "µg/mL", 0.12]
]}

Given item CC1(C)S[C@@H]2[C@H](NC(=O)Cc3ccccc3)C(=O)N2[C@H]1C(=O)O , the value recorded as its MIC is 0.12

Given item CO/N=C(\C(=O)N[C@@H]1C(=O)N2C(C(=O)O)=C(COC(C)=O)CS[C@H]12)c1csc(N)n1 , the value recorded as its MIC is 0.06

Given item Cc1nnc(SCC2=C(C(=O)O)N3C(=O)[C@@H](NC(=O)Cn4cnnn4)[C@H]3SC2)s1 , the value recorded as its MIC is 0.5
